The measured values listed here are drawn from the Deep4Chem optical property database.

A collection of molecules and their measured absorption maximum
assay: solvent given as SMILES; conditions: in CN(C)C=O

{"columns": ["smilesRepr", "unitSymbol", "absorption maximum"],
 "data": [
  ["CCOC(=O)CN(CC(=O)OCC)c1ccc(-c2cc(-c3ccccn3)nc(-c3ccccn3)c2)cc1", "nm", 332],
  ["CCc1ccc(-c2nc(-c3ccc(-n4c5ccccc5c5ccccc54)cc3)cc(-c3ccc(-n4c5ccccc5c5ccccc54)cc3)n2)cc1", "nm", 344],
  ["O=C1/C(=C\\c2ccc3oc4ccccc4c3c2)S(=O)(=O)c2ccccc21", "nm", 367],
  ["CCCCCCOc1ccc(N(c2ccc(OCCCCCC)cc2)c2ccc(-c3sc(-c4ccc(N(c5ccc(OCCCCCC)cc5)c5ccc(OCCCCCC)cc5)cc4)c4nc(-c5ccccc5)c(-c5ccccc5)nc34)cc2)cc1", "nm", 598],
  ["N#CC(C#N)=C(c1ccc(N(c2ccccc2)c2ccccc2)cc1)c1ccc(N(c2ccccc2)c2ccccc2)cc1", "nm", 374.03],
  ["O=S(=O)(c1ccccc1)c1ccc(-c2ccc3c(c2)c2cc(-c4ccc(S(=O)(=O)c5ccccc5)cc4)ccc2n3-c2ccccc2)cc1", "nm", 345],
  ["CCCCCCCN1C(=CC2=C([O-])C(=CC3=[N+](CCCCCCC)c4ccccc4C3(C)C)C2=C(C#N)C#N)Sc2ccccc21", "nm", 681],
  ["COc1cc2c(cc1C=C(C#N)C#N)c1ccccc1n2C", "nm", 428],
  ["c1ccc(-c2cc(-c3ccc(-c4nc(-c5ccccn5)c(-c5ccccn5)[nH]4)cc3)cc(-c3ccccn3)n2)nc1", "nm", 337],
  ["CCN(CC)c1ccc(/C=N/c2cc3nc4ccccc4nc3cc2/N=C/c2ccc(N(CC)CC)cc2O)c(O)c1", "nm", 488],
  ["CCCCCCCCCCCCCCCC[n+]1ccc(/C=C/c2ccccc2O)cc1", "nm", 549.1],
  ["CCCCCCCCCCCCCCCC[n+]1ccc(/C=C(\\C)c2ccccc2)cc1", "nm", 384.4],
  ["CCN(CC)c1ccc(-c2nc(Oc3ccc(-c4nc5ccc(Cl)cc5o4)cc3)nc(Oc3ccc(-c4nc5ccc(Cl)cc5o4)cc3)n2)cc1", "nm", 393],
  ["CCN(CC)c1ccc2cc(/C=C/C(=O)/C=C(O)/C=C/c3cc4ccc(N(CC)CC)cc4oc3=O)c(=O)oc2c1", "nm", 527],
  ["CN(C)CCNc1ccc([N+](=O)[O-])cc1[N+](=O)[O-]", "nm", 358],
  ["CN(C)c1ccc(-c2ccc(-c3cc(N4CCCCC4)c(C#N)c4c3-c3ccccc3CC4)cc2)cc1", "nm", 350],
  ["O=C1C2=C3c4sccc4C=CN3C(=O)C2=C2c3sccc3C=CN12", "nm", 605]
]}

----------
experiment: solvent given as SMILES; details: in ClCCl
Binary call on absorption maximum: Fulfilled from 500 nm upward, Not fulfilled beneath that.

{"columns": ["compound", "labelClass"],
 "data": [
  ["CCCCCCc1cc2c(=O)c3cc(CCCCCC)cc4c(=O)c5cc(CCCCCC)cc6c(=O)c(c1)c2n(c34)c65", "Not fulfilled"],
  ["CC[n+]1c(C=C2C(=O)C(C=C3N(C)c4ccc(Cl)cc4C3(C)C)=C2[O-])sc2ccccc21", "Fulfilled"],
  ["COc1ccc(C(=O)/C=C2\\C(=O)Nc3ccccc32)c(OC)c1", "Not fulfilled"],
  ["CCCCC1(CCCC)c2cc(C#Cc3ccc4ccc5cccc6ccc3c4c56)ccc2-c2ccc(C#Cc3ccc4ccc5cccc6ccc3c4c56)cc21", "Not fulfilled"],
  ["CC(C)(C)c1ccc2c(c1)c1cc(C(C)(C)C)ccc1n2-c1cccc(-c2nc(-c3cccc(-n4c5ccc(C(C)(C)C)cc5c5cc(C(C)(C)C)ccc54)c3)nc(-c3cccc(P(=O)(c4ccccc4)c4ccccc4)c3)n2)c1", "Not fulfilled"],
  ["COc1ccc(-c2c3ccccc3c(-c3ccc(OC)cc3)c3cc4sc(C)cc4cc23)cc1", "Not fulfilled"],
  ["CCCCCCCCOc1ccc2c3cccc4c(OCCCCCCCC)ccc(c5cccc1c52)c43", "Not fulfilled"],
  ["Cc1ccc(-n2c(-c3ccc(C(F)(F)F)cc3)nc(-c3ccccc3O)c2-c2ccccc2O)cc1", "Not fulfilled"],
  ["CC(C)(C)NC(=O)c1ccc(-c2cc3ccccc3o2)c2ccc3c4ccccc4c4ccccc4c3c12", "Not fulfilled"],
  ["c1ccc(-n2c3ccccc3c3cc(-c4cccc(-n5c6ccccc6c6c7sc8ccccc8c7ccc65)c4)ccc32)cc1", "Not fulfilled"],
  ["Cc1nc2ccc(/C=C/c3ccc(N(C)C)cc3)cc2nc1-c1ccccc1", "Not fulfilled"],
  ["Cc1cc(-c2ccc(C(C)(C)C)cc2)c2nsnc2c1-c1ccc(C(C)(C)C)cc1", "Not fulfilled"],
  ["CN(C)c1ccc(/C=C/c2nc3cc(Br)ccc3nc2-c2ccccc2)cc1", "Not fulfilled"],
  ["CCCC1=Cc2nc1ccc1[nH]c(cc1CCC)c1nc(c(NC(=O)CCCC(=O)O)cc3[nH]c2cc3CCC)C(CCC)=C1", "Fulfilled"],
  ["O=c1cc(-c2ccccc2)oc(-c2nc3ccccn3c2NC2CCCCC2)c1", "Not fulfilled"],
  ["N#C/C(=C\\c1cc(/C=C(\\C#N)c2ccc(C(F)(F)F)cc2)c(-c2ccc(N(c3ccccc3)c3ccccc3)cc2)cc1-c1ccc(N(c2ccccc2)c2ccccc2)cc1)c1ccc(C(F)(F)F)cc1", "Not fulfilled"],
  ["COC(=O)c1c2ccccc2nc2ccccc12", "Not fulfilled"],
  ["F[B-]1(F)n2c(Oc3ccccc3)c(Cl)c(Br)c2C(Oc2ccccc2)=C2C(Br)=C(Cl)C(Oc3ccccc3)=[N+]21", "Fulfilled"],
  ["COC(=O)C1=C(C(=O)OC)C2(c3cc([N+](=O)[O-])ccc3-c3ccc([N+](=O)[O-])cc32)C2(/C=C/c3ccccc3)c3cc(OC)c(OC)cc3CCN12 (stereo not drawn)", "Not fulfilled"],
  ["CCCCN1C(=O)c2cccc3c([O-])c(/C=C/c4sc5ccccc5[n+]4CC)cc(c23)C1=O", "Fulfilled"],
  ["N#Cc1ccc(-c2cn3ccc[n+]3[n-]2)cc1", "Not fulfilled"],
  ["CC1=CC(C)=[N+]2C1=Cc1c3ccccc3c(C#Cc3ccccc3)n1[B-]2(F)F", "Fulfilled"],
  ["CCCCN1C(=O)C(=C/C=C/C=C2N(CCCC)c3ccccc3N2CCCC)C(=O)N(CCCC)C1=S", "Fulfilled"],
  ["O=C(O)C1=C(C(=O)O)C2=C[C@H]3c4ccccc4[C@]2(S1)c1ccccc13", "Not fulfilled"],
  ["CCN(CC)c1ccc2c(-c3ccccc3C(=O)O)c3c([o+]c2c1)/C(=C/c1ccc(N(C)C)s1)CCC3", "Fulfilled"],
  ["CCCCCCCCCCn1cc(C2=C(c3cn(CCCCCCCCCC)c4ccccc34)C(=O)N(C)C2=O)c2ccccc21", "Not fulfilled"],
  ["CCN(CC)c1ccc(/N=N/c2nc3ccc(OC)cc3s2)cc1", "Fulfilled"],
  ["COC(=O)c1c(-c2cc3ccccc3oc2=O)nn(-c2cccc(C)c2)c1C(=O)OC", "Not fulfilled"],
  ["CCCCN(CCCC)c1ccc(C#Cc2cc(C#Cc3c(F)c(F)c(F)c(F)c3F)c(C#Cc3ccc(N(CCCC)CCCC)cc3)cc2C#Cc2c(F)c(F)c(F)c(F)c2F)cc1", "Not fulfilled"],
  ["CC(C)[Si](C#Cc1c2cc3ccccc3cc2c(C#Cc2ccc(C(F)(F)F)cc2)c2cc3ccccc3cc12)(C(C)C)C(C)C", "Fulfilled"],
  ["CCN(CC)c1ccc2cc(-c3nc4c5cccc6ccc7cccc(c7c65)c4n3-c3ccc(C(C)(C)C)cc3)c(=O)oc2c1", "Not fulfilled"],
  ["c1ccc(C2=Nc3cccc4[n+]3[B-](c3ccccc3)(N2)NC(c2ccccc2)=N4)cc1", "Not fulfilled"],
  ["COC(=O)c1cc(=O)n(C)c2cc(-c3ccc(N(C)C)cc3)sc12", "Not fulfilled"]
]}

----------
A collection of molecules and their measured absorption maximum
experiment: solvent given as SMILES; conditions: in CO
measuredMetric: absorption maximum

{"columns": ["molecule", "observedResult"],
 "data": [
  ["COc1cccc(OC)c1C1=C2C(C)=CC(C)=[N+]2[B-](F)(F)n2c(C)cc(C)c21", "503 nm"],
  ["CC1(C)C(/C=C/C=C/C=C/C=C2/N(c3ccc(S(=O)(=O)[O-])cc3)c3ccc(S(=O)(=O)[O-])cc3C2(C)C)=[N+](c2ccc(S(=O)(=O)[O-])cc2)c2ccc(S(=O)(=O)[O-])cc21", "759 nm"],
  ["O=C1c2ccccc2-c2c(-c3ccccc3)c(-c3ccccc3)c(-c3ccccc3)c3cccc1c23", "407 nm"],
  ["COC(=O)C(Cc1ccc2oc(-c3ccc(-n4c5ccccc5c5ccccc54)cc3)nc2c1)NC(=O)OC(C)(C)C (centres undefined)", "339.7 nm"]
]}
